Recorded values, source ChEMBL document CHEMBL1201862.

Below is a list of entries, each paired with its recorded GI50 value.
- Test system: NCI/ADR-RES
- Procedure Details: NCI tumour cell line growth inhibition, 48 h
The source made the active and inactive calls. No stated cut-off is given here; in the data, active = GI50 up to about 1.1 µM and inactive = higher.

Please review the following examples before continuing.
O=C(O)c1cc2ccccc2oc1=O; > 100 µM (inactive)
COc1cc(N(C)C)ccc1C=c1c2ccccc2n2c1cc(-c1ccccc1)[n+]2C; 6.47 µM (inactive)
CCOC(=O)c1cc(-c2ccn(C(C)=O)c2)c(-c2cc(C)co2)[nH]1; > 100 µM (inactive)
CCOc1ccc(NCC2CC/C(=C\C=C\c3ccccc3)C2=O)cc1 (stereo not drawn); 25.7 µM (inactive)
CC1CC(C)C2=NOS3=C2C1=NO3 (stereo not drawn); > 100 µM (inactive)

**Q:** Fill in: GI50 of Cc1cc(Cc2cc(Cc3cc(C)cc(C(C)(C)C)c3O)c(C)cc2C)c(O)c(C(C)(C)C)c1 is ___
**A:** 17.9 µM (inactive)

**Q:** Try this compound too: c1ccc2sc(C3(N4CCCCC4)CCCCCC3)cc2c1
**A:** 20.5 µM (inactive)

**Q:** Try this compound too: c1cc(-c2cscc2-c2ccsc2)cs1
**A:** 37.7 µM (inactive)

**Q:** Try this compound too: OC1(c2cccs2)c2cccc(Cl)c2C(O)(c2cccs2)c2c(Cl)cccc21 (stereo not drawn)
**A:** 63.5 µM (inactive)

**Q:** Try this compound too: O=C(N/N=C(COc1ccccc1Cl)\N=C\c1ccncc1)c1ccncc1
**A:** > 100 µM (inactive)

**Q:** Try this compound too: COc1ccc(/N=N/c2ccc3oc(=O)c(C(=O)Nc4ccccc4)cc3c2)cc1
**A:** > 10 µM (inactive)

**Q:** Try this compound too: Cc1cccc(Nc2nn3c(=O)c4c5c(sc4nc3s2)CCCC5)c1
**A:** 11.1 µM (inactive)

**Q:** Try this compound too: COc1ccc(-c2c(C#N)c(S)n(NS(=O)(=O)c3ccc(C)cc3)c(=O)c2C#N)cc1
**A:** 20.3 µM (inactive)

**Q:** Try this compound too: O=C(c1cccc(F)c1F)N1CCc2c([nH]c3ccccc23)C1c1ccc2c(c1)OCO2 (stereo not drawn)
**A:** 5.56 µM (inactive)

**Q:** Try this compound too: O=c1oc2ccccc2cc1-c1csc(Nc2ccc(F)cc2)n1
**A:** 3.46 µM (inactive)

**Q:** Try this compound too: O=C1/C(=C/c2ccccc2)NC(=S)N1CN1CCOCC1
**A:** > 100 µM (inactive)

**Q:** Try this compound too: O=NN(CCCl)C(=O)N[C@H]1CC[C@H](C(=O)O)CC1
**A:** > 100 µM (inactive)

**Q:** Try this compound too: CCOC(=O)CNc1c(OCc2ccccc2)c(=O)c1=O
**A:** > 100 µM (inactive)

**Q:** Try this compound too: N[C@@H](CCC(=O)NCP(=O)(O)O)C(=O)O
**A:** > 100 µM (inactive)

###

- System: UACC-62
- Procedure Details: NCI tumour cell line growth inhibition, 48 h
Activity calls are given as the source filed them. Rule as the data show it: active = GI50 up to about 1.1 µM and inactive = higher.
Outcome field: choose from active, inactive

Answered cases to consult:
CCN(CC)C(=S)N/N=C/c1ccccn1; active
CC[n+]1c(/C=C/c2cc(C(=O)OC)n3c2sc2ccccc23)sc2ccccc21; active
CON(C)C(=O)C(Cc1ccccc1)NC(=O)OCc1ccccc1 (stereo not given); inactive
Cc1ccc(/N=N/C2S/C(=C(\C#N)c3nc4ccccc4[nH]3)N(c3ccccc3)C2=O)cc1 (stereo not given); inactive
CC(=O)O[C@@H]1C2=C(C3=C([O-])C4=CC=CC(=O)C4C(=O)C3=C2[N+]#N)[C@H](OC(C)=O)[C@@H](OC(C)=O)[C@]1(C)O (stereo not given in full); active

**Q:** Status in this test for COc1ccc2c(c1)OC1c3ccccc3OCC21 (stereo not given) ?
**A:** inactive

**Q:** Try this compound too: Cc1ccc(NC(=O)CCC(=O)C(C#N)c2ccc(Cl)cc2)cc1C (stereo not given)
**A:** inactive

**Q:** Try this compound too: COc1ccc(C(C)c2cc3c(cc2O)OCO3)cc1 (stereo not given)
**A:** inactive

**Q:** Try this compound too: Cc1cc(S(=O)(=O)/N=C(\NN)NNc2cccc(C(F)(F)F)n2)c(S)cc1Cl
**A:** inactive

**Q:** Try this compound too: COC1=C(OC)C(=O)C(Cc2c(C)nc3sc(C)cn23)=C(C)C1=O
**A:** inactive

###

- Tested on: NCI-H460
- Procedure Details: NCI tumour cell line growth inhibition, 48 h
Activity calls are given as the source filed them. Cut-off read from the data, not from the text of the source: active = GI50 up to about 1.1 µM and inactive = higher.
Outcome field: choose from Y (active), N (inactive)

Answered cases to consult:
Cc1ccc(S(=O)(=O)N/N=C/CN2C(=O)c3ccccc3C2=O)cc1; N
CC1=CC(=O)[C@@H](O)[C@]2(C)[C@H]3[C@@]4(O)OC[C@]35[C@H]([C@@H](C)[C@H]4O)[C@@H](OC(=O)C(C)(C)CO)C(=O)O[C@@H]5C[C@@H]12; Y
CC1CC(NC2CCCCC2)=Nc2ccccc2N1Cc1ccccc1 (centres undefined); N

Alright, here's another compound for you.
**Q:** Status in this test for CCOC(=O)c1c(Sc2ccc([N+](=O)[O-])cc2[N+](=O)[O-])nc2c3ccccc3ccn12 ?
**A:** N

###

- Test system: PC-3
- Procedure Details: NCI tumour cell line growth inhibition, 48 h
The source made the active and inactive calls. No stated cut-off is given here; in the data, active = GI50 up to about 1.1 µM and inactive = higher.
Reported Property: GI50

Please review the following examples before continuing.
CO[C@H]1[C@@H](O)[C@H](O[C@@H]2C[C@H]3CC[C@@H]4[C@H](CC[C@]5(C)[C@@H](C6=CC(=O)OC6)CC[C@]45O)[C@@]3(C)[C@H](OC(C)=O)C2)O[C@@H](C)[C@H]1O; 2.26 µM (inactive)
CC(=O)n1c2ccc(Br)cc2c2nc3ccccc3nc21; > 100 µM (inactive)
COc1cc2c(/C=C3/C(=O)Nc4cc(C)c(O)cc43)c(Cl)[nH]c2cc1C; 3.18 µM (inactive)
O=C1SC(c2ccc(Cl)cc2)(c2ccc(Cl)cc2)c2ccccc21; 40.4 µM (inactive)
Cc1ccc2c(c1)C(=O)c1nc(C)ccc1C2=O; 35.2 µM (inactive)
CC(=O)Oc1ccc(/C=C/C(=O)OCCOC(=O)/C=C/c2ccc(OC(C)=O)c(OC(C)=O)c2)cc1OC(C)=O; 12.1 µM (inactive)
CCOC(=O)C1=C(C)N(C)C23OC4(C(=O)OC)CC2c2ccccc2C1N3C4=O (stereo unspecified); > 100 µM (inactive)
CCCCC1Cc2ccccc2-c2nc3ccccc3n21 (stereo unspecified); 10.3 µM (inactive)

Next:
**Q:** Fill in: GI50 of CC1CC(NC2CCCCC2)=Nc2ccccc2N1Cc1ccccc1 (stereo unspecified) is ___
**A:** 5.41 µM (inactive)

###

- System: MDA-MB-231
- Procedure Details: NCI tumour cell line growth inhibition, 48 h
Activity calls are given as the source filed them. No stated cut-off is given here; in the data, active = GI50 up to about 1.1 µM and inactive = higher.
Reported Property: GI50

CC1(C)CCCCC1/C=C/C(CC(O)(C(F)(F)F)C(F)(F)F)=N\Nc1ccc([N+](=O)[O-])cc1[N+](=O)[O-] (stereo not given); 2.03 µM (inactive)
O=C(CC(O)(C(F)(F)F)C(F)(F)F)c1cc(CC(=O)C(O)(C(F)(F)F)C(F)(F)F)cc(CC(=O)C(O)(C(F)(F)F)C(F)(F)F)c1; 1.64 µM (inactive)
Cc1cc(S(=O)(=O)Nc2n[nH]c(-c3ccc(Cl)cn3)n2)c(S)cc1Cl; > 100 µM (inactive)
Cc1cccc(Nc2nn3c(=O)c4c5c(sc4nc3s2)CCCC5)c1; 8.09 µM (inactive)
CC(=O)Oc1ccc(/C=C/C(=O)OCCOC(=O)/C=C/c2ccc(OC(C)=O)c(OC(C)=O)c2)cc1OC(C)=O; 14.5 µM (inactive)
CC(=O)OCCOCn1c2c(c(=O)[nH]c1=O)CCC2; > 100 µM (inactive)
O=c1[nH]nc(Cc2ccccc2)n1C1CCCC1; > 100 µM (inactive)
CCOC(=O)CNc1c(OCc2ccccc2)c(=O)c1=O; > 100 µM (inactive)

**Q:** Fill in: GI50 of COc1ccc(N2C(=O)C3c4[nH]c5ccccc5c4C4c5ccccc5CC4C3C2=O)cc1 (stereo not given) is ___
**A:** > 100 µM (inactive)

**Q:** Try this molecule too: CCCC(=O)n1[nH]c(=O)n(C(C)(C)C)c1=O
**A:** > 100 µM (inactive)

###

- Test system: MDA-MB-231
- Procedure Details: NCI tumour cell line growth inhibition, 48 h
Active and inactive are the calls of the source. Rule as the data show it: active = GI50 up to about 1.1 µM and inactive = higher.
Outcome field: choose from active, inactive

Answered cases to consult:
COC(=O)c1c(O)ccc2c1c1c(n2Cc2ccccc2)C(=O)c2ccccc2C1; inactive
N#Cc1c(N)oc(-c2ccc([N+](=O)[O-])cc2)c1C#N; inactive
Cn1c(=O)c2nc(CCNC(=O)c3ccccc3)[nH]c2n(C)c1=O; inactive
N#CC12C(=O)N=C(N)C1(C#N)C(c1ccco1)NC1=C2CCCC1 (configuration not stated); inactive
Cc1cccc(/C=C2\CCCc3ccccc3C2=O)c1; inactive

**Q:** Status in this test for CC(Oc1ccccc1Cl)C(=O)NN1C(=O)CSC1c1ccc(Cl)cc1 (configuration not stated) ?
**A:** inactive

**Q:** Try this molecule too: COC(=O)/C=C1/OC(c2ccc(Br)cc2)=C(Br)C1=O
**A:** inactive

**Q:** Try this molecule too: COc1cc2c(c(OC)c1OC)-c1ccc(SC)c(=O)cc1C(NC=O)CC2 (configuration not stated)
**A:** active

**Q:** Try this molecule too: Cc1cc(Cc2cc(Cc3cc(C)cc(C(C)(C)C)c3O)c(C)cc2C)c(O)c(C(C)(C)C)c1
**A:** inactive

**Q:** Try this molecule too: COc1ccc2c(c1)c(CC(=O)O)c(C)n2C(=O)c1ccc(Cl)cc1
**A:** inactive

**Q:** Try this molecule too: CC(=O)O[C@@H]1C=C(C)[C@H](CBr)O[C@@]2(C)CC[C@H](Br)C(C)(C)[C@H]12
**A:** inactive

**Q:** Try this molecule too: COC(=O)/C(C#N)=C(\Nc1ccccc1)N1CCOCC1
**A:** inactive

**Q:** Try this molecule too: Nc1ccc2nc(-c3cccc(Cl)c3)cc(O)c2c1
**A:** inactive

**Q:** Try this molecule too: O=C1c2ccccc2C(=O)N1n1c(Cc2ccc([N+](=O)[O-])cc2)n[nH]c1=O
**A:** inactive

**Q:** Try this molecule too: Cc1nc2cn3c(c2c(=O)[nH]1)CCCCC3
**A:** inactive

**Q:** Try this molecule too: CN(C)CCNC(=O)c1ccc(NCCCN(C)CCCNc2ccc(C(=O)NCCN(C)C)c3nc4ccccc4c(O)c23)c2c(O)c3ccccc3nc12
**A:** active

**Q:** Try this molecule too: N[C@@H](CCC(=O)NCP(=O)(O)O)C(=O)O
**A:** inactive

**Q:** Try this molecule too: CCCCCN1CCN(c2ncccn2)CC1
**A:** inactive

**Q:** Try this molecule too: Cc1c(CN2CCN(C)CC2)c(CN2CCN(C)CC2)c(C)n1-c1ccc(Cl)cc1
**A:** inactive

**Q:** Try this molecule too: O=C(Nc1ccccc1)n1[nH]c(=O)n(-c2ccccc2)c1=O
**A:** inactive

**Q:** Try this molecule too: NS(=O)(=O)c1cc(Cl)c(NC(=S)NC(=O)Nc2ccc(Cl)c(Cl)c2)c(Cl)c1
**A:** inactive

**Q:** Try this molecule too: CSC1=NC(C(N)=O)C(N)N1C (configuration not stated)
**A:** inactive
